Tested on: DU-145
ASSAY EXPLANATION: Antiproliferative activity against human DU-145 cells assessed as reduction in cell viability incubated for 48 hrs by CCk-8 assay
Type: functional, cell-based
CONDITION LABEL: DU-145, 48 h
TEST READOUT: IC50

Field IC50 (system: DU-145) for entry `C[C@H]1CCC/C=C/[C@@H]2C[C@H](OC(=O)CCCC(=O)Oc3ccc(-c4cc(=S)ss4)cc3)C[C@H]2[C@H](OC(=O)CCCC(=O)Oc2ccc(-c3cc(=S)ss3)cc2)/C=C/C(=O)O1` = > 40 µM

Param item: `C[C@H]1CCC/C=C/[C@@H]2C[C@H](OC(=O)CCC(=O)OCCCCCCOc3ccc(-c4cc(=S)ss4)cc3)C[C@H]2[C@H](O)/C=C/C(=O)O1` ; param system: DU-145; output IC50: > 40 µM

`C[C@H]1CCC/C=C/[C@@H]2C[C@H](OC(=O)CCC(=O)OCCCCOc3ccc(-c4cc(=S)ss4)cc3)C[C@H]2[C@H](OC(=O)CCC(=O)OCCCCOc2ccc(-c3cc(=S)ss3)cc2)/C=C/C(=O)O1` on DU-145 gives IC50 = > 40 µM
